// data source = paper PMC9170038

Biological target: MS2 coat protein, dlFG mutant (Escherichia phage MS2, UniProt P03612, del68-81insG)
Test: 4 mM Mg2+; no ligand; RNA-MaP array; 100 mM Tris-HCl pH 7.5, 80 mM KCl, 4 mM MgCl2, 0.1 mg/mL BSA, 1 mM DTT, 0.01 mg/mL yeast tRNA, 0.01% Tween-20; protein 1.5 nM to 3 uM; 37 C (Table S3)
Details: chain copies: 2; label: tethered by stalled RNA polymerase
property.name: pKd
Interpret pKd as the negative base-10 log of the concentration measured in mol/L.

Exam item: Please give the measured pKd for this binder: Eterna 6122649 (Exclusion NG 2) (ssRNA) RNA: UUAUCUUGUCAAGGAUAUGUUGUAUUGAUCUGAAAACAUGAGGAUCACCCAUGUAUACGGUGGGAACAGAAGGUGAAUGUAGAA
Marked response: 6.09

Exam item: Please give the measured pKd for this binder: Eterna 6454073 (Inverted Small Loop Exclusion NG 3) (ssRNA) RNA: CUGUGACGGUGCGCAAGUGGACGUAGAAGGGUCACAUGAGGAUCACCCAUGUGGGCCUGCUAGUGACAGGAUAUACGUUCGUGC
Marked response: 7.71

Exam item: Please give the measured pKd for this binder: Eterna 6071251 (Exclusion 3) (ssRNA) RNA: GCACUGACAGGAUAUACAUGAGGAUCACCCAUGUGACCCUUACAGUACUCGCGUACUGGUAGAAGGGUCUGUGC
Marked response: 7.45

Exam item: Please give the measured pKd for this binder: Eterna 15090 (Exclusion 6) (ssRNA) RNA: AAAUGGGCGUAGGAUAUGAGAUGGUCUAGCAGCUCAGAAGGACGCACAUGAGGAUCACCCAUGUGAUCGGACUA
Marked response: 7.54

Exam item: Please give the measured pKd for this binder: Eterna 6437027 (Inverted Exclusion NG 3) (ssRNA) RNA: AUACAUGAGGAUCACCCAUGUUACUGGGUCUAUAUAGAACGUAGAAGGAUGUUUAUACACAUAACAUAGGAUAUACAAUAUUGU
Marked response: 7.48

Exam item: Please give the measured pKd for this binder: Eterna 6075609 (Exclusion 3) (ssRNA) RNA: CUGAGUUAAGGAUAUACAUGAGGAUCACCCAUGUAAAGUAGCUUGCGUACAGGCAGAUGUAGAAGGUAAUUCGG
Marked response: 7.37
